Test system: HE15 activation of AP-1 activity
EXPERIMENTAL_DETAILS: Inhibitor screen: HE15 (constitutive ER) activation of AP-1 activity
Assay type: cell-based
TEST_CONTEXT: HeLa cells
MEASURED_ATTRIBUTE: inhibition of the activation of AP-1 activity by HE15

• Nc1ncc2[nH]cnc2n1 [2-aminopurine] = inhibit
• O=c1c(-c2ccc(O)cc2)coc2cc(O)cc(O)c12 [genistein] = inhibit
• Nc1nc2nc[nH]c2c(=S)[nH]1 [6-thioguanine] = inhibit
